Ref: patent US20200299384A1

Target Or Test System: T1, Cynomolgus Monkey CD3 epsilon protein (Cynomolgus monkey, UniProt Q95LI5 22-117)
T1 construct: Bought protein; also called Cyno-Monkey CD3epsilon
T1 sequence (looked up): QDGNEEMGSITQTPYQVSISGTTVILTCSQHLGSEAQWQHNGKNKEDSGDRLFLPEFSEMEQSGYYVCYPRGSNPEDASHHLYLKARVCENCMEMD
Assay Name: ELISA, antigen coated on plate
Observed Property: ELISA (A450)
Lab book: enter the figure in A450, no units written.

Recorded ELISA (A450), per entry:
* WBP3311_2.615.8 (antibody, V domains shown, Mouse monoclonal antibody from hybridoma; also called W3311-2.615.8) VH: QVQLQQSGPELVKPGTSMKISCKASGYSFTDFYTHWVRQRPGQGLEWIGWIFPGSDNIKYNEKFKGKATLTADTSSSTAYMQLSSLTSEDSAVYFCARDSVSVYYFDYWGQGTTLTVSS VL: DIVMSQSPSSLAVTAGEKVTMSCKSSQSLLNIRTRKNYLAWYQQKPGQSPKLLIYWASTRDSGVPDRFTGSGSGTDFTLTISSVQAEDLAVYYCTQSFILRTFGGGTKLEIK | 2.71
* WBP3311_2.400.5 (antibody, V domains shown, Mouse monoclonal antibody from hybridoma; also called W3311-2.400.5) VH: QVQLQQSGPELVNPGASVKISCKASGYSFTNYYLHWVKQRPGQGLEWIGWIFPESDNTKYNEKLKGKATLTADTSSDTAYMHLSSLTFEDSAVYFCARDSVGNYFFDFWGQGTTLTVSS VL: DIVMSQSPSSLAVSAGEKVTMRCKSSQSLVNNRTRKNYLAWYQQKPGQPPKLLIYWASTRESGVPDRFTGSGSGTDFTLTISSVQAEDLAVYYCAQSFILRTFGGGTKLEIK | 2.79
* WBP3311_2.166.48 (antibody, IgG2a, V domains shown, Mouse monoclonal antibody from hybridoma; also called W3311-2.166.48; W3311_2.166.48) VH: QVQLQQSGPELVKPGASVKIACKASGYSFTTYYIHWVKQRPGQGLEWIGWIFPGNDNIKYSEKFKGKATLTADTSSSTAYMQLSSLTSEDSAVYFCAIDSVSIYYFDYWGQGTTLTVSS VL: DIVMSQSPSSLAVSAGEKVTMSCKSSQSLLNSRTRKNYLAWYQQKPGQSPKLLIYWASTRKSGVPDRFTGSGSGTDFTLTINSVQAEDLAVYYCTQSFILRTFGGGTKLEIK | 2.81
* WBP331_2.488.33 (antibody, V domains shown, Mouse monoclonal antibody from hybridoma; also called WBP3311_2.488.33; W3311-2.488.33) VH: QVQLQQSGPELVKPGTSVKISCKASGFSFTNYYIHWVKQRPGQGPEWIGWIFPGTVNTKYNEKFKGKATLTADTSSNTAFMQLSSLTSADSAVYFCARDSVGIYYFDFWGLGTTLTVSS VL: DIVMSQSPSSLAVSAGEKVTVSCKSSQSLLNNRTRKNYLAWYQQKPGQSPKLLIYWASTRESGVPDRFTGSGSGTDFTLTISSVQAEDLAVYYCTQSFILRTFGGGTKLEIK | 2.83

Then this binder:
Entry under review: WBP3311_2.844.8 (antibody, V domains shown, Mouse monoclonal antibody from hybridoma; also called W3311-2.844.8; clone 2.844.8) VH: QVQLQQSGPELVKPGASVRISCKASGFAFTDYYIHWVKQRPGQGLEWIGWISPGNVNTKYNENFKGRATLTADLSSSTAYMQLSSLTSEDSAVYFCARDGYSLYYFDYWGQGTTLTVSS VL: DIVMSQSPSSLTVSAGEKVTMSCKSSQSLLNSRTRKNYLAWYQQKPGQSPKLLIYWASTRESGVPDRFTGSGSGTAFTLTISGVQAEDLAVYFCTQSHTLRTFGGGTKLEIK . Reported ELISA (A450)?
2.75
